System: human red blood cells (hRBC)
Assay: Hemolysis
Type: cell-based
Bridge positions count the residues as written; N and C are the ends. Square brackets hold non-standard residues; d marks the D form. Peptide text beside a SMILES is read from it. 2Nal = N[C@@H](Cc1ccc2ccccc2c1)C(=O)O
READOUT: Hemolysis at 100 μM (%)

- COMPOUND: "C[C@@H]1NC(=O)[C@H](CCCNC(=N)N)NC(=O)[C@H](Cc2ccc(O)cc2)NC(=O)[C@@H]2CCCN2C(=O)[C@H]2CCCN2C(=O)[C@H](CCCCN)NC(=O)[C@H](CCC(N)=O)NC(=O)[C@H](Cc2ccc(O)cc2)NC(=O)[C@@H]2CSSC[C@H](NC1=O)C(=O)N[C@@H](CCCNC(=N)N)C(=O)NCC(=O)N1CCC[C@@H]1C(=O)N[C@@H](CCCNC(=N)N)C(=O)N[C@@H](CCCNC(=N)N)C(=O)N[C@@H](Cc1ccc3ccccc3c1)C(=O)N2 [Ex. 95] (cyclo(YRACRG[dP]RR[2Nal]CYQK[dP]P); disulfide 4-11)"
  TEST VALUE: 0.1
